Ref: paper PMC4358367

Target: T1, AnkG_repeats (24 ANK repeats of rat 190 kDa ankyrin-G, residues 38–855) (rat, UniProt O70511 38-855)
T1 chain: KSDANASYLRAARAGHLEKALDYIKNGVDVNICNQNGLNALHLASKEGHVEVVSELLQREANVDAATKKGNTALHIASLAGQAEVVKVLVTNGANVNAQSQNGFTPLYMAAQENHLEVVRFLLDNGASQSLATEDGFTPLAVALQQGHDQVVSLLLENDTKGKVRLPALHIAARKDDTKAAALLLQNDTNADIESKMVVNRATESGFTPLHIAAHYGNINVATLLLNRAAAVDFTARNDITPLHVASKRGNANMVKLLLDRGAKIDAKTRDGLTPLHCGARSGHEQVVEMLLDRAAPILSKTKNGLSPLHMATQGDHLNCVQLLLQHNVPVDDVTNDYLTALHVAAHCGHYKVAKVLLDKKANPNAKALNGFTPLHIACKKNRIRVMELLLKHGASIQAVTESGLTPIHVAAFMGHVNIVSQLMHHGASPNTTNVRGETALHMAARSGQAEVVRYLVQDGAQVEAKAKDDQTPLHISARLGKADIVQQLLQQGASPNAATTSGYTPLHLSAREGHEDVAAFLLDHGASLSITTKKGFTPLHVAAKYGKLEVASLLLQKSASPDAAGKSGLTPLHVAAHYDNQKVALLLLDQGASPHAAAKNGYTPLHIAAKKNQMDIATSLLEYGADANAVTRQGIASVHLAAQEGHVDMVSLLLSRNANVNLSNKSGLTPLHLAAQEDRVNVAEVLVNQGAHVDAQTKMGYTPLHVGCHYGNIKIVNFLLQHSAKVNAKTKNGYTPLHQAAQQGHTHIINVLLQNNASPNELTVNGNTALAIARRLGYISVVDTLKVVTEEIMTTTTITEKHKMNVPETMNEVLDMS
Assay: ITC
endpoint label: Kd (nM)
Number in nM, nothing else.

// sample TVTVPIAVGESDFENLNTEEFSSESDM (domain or fragment) [Nav1.2_ABD-C (27-residue motif of loop 2, residues 1103–1129)] , its Kd was 2700

// sample Nav1.2 ABD without the C-terminal less-conserved 10 residues of ABD-C (domain or fragment) KALDEIKPLEDLNNKKDSCISNHTTIEIGKDLNYLKDGNGTTSGIGSSVEKYVVDESDYMSFINNPSLTVTVPIAVGESDFENLN , its Kd was 170
